# Test description: amyloid nucleation score (Sup35N fusion, yeast selection) (log enrichment); library NNK3; higher = more nucleation; inactive = no reads after selection;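 note: zero at mode of non-aggregating sequences after 7 days selection at 30°C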
Metric: amyloid nucleation score

Substance: KFGCSYTNYSITSPDNPSC
Metric: amyloid nucleation score
Test result: inactive

Substance: DSKGIFYFFGLVSLY
Metric: amyloid nucleation score
Test result: inactive

Substance: HNLHSYEHRVRTSQAV
Metric: amyloid nucleation score
Test result: inactive

Substance: RIWRPLTFMSLDLMIMWCRH
Metric: amyloid nucleation score
Test result: inactive

Substance: CVDTDLVERWIAWVSSGVML
Metric: amyloid nucleation score
Test result: 0.663

Substance: STLILNRLYCFNLISLASLS
Metric: amyloid nucleation score
Test result: 0.56

Substance: FGYNYLCTFSFIISMVHVRF
Metric: amyloid nucleation score
Test result: inactive

Substance: WMYHMHENYN
Metric: amyloid nucleation score
Test result: 1.18

Substance: KYFPVAQYGRIWVRRPRGQV
Metric: amyloid nucleation score
Test result: inactive

Substance: PVAMAYAVSSVVDMASN
Metric: amyloid nucleation score
Test result: inactive

Substance: FDLWNIILVYIPVNACC
Metric: amyloid nucleation score
Test result: 0.735

Substance: GWLYYQLNLDNTSVRQHWSV
Metric: amyloid nucleation score
Test result: 0.587

Substance: PLKTLFCSVLSCVIFLYLLM
Metric: amyloid nucleation score
Test result: inactive

Substance: WSCNISYTLLSMGRRLYSRR
Metric: amyloid nucleation score
Test result: inactive

Substance: VPGELGALGQACLKEDFSKG
Metric: amyloid nucleation score
Test result: inactive

Substance: MRSWRMRGSERFAHSLRGYL
Metric: amyloid nucleation score
Test result: inactive

Substance: RGCTGIKPLPTSWACAFSTS
Metric: amyloid nucleation score
Test result: inactive

Substance: RRRFCVKGSPGVRFVEWTLR
Metric: amyloid nucleation score
Test result: -0.696

Substance: LSFLTHCRHSWVRVRDILWA
Metric: amyloid nucleation score
Test result: inactive

Substance: TFLALHNNQQLV
Metric: amyloid nucleation score
Test result: inactive

Substance: YLIGYDT
Metric: amyloid nucleation score
Test result: 0.366

Substance: SDLSCSELEYSHGTNTDWVR
Metric: amyloid nucleation score
Test result: inactive

Substance: RRLHSIAFVHRCLIIICCMG
Metric: amyloid nucleation score
Test result: inactive

Substance: ENTTMVGHMGYSLMFSYK
Metric: amyloid nucleation score
Test result: 1.25

Substance: TWFTSFYCFSNNAYLYF
Metric: amyloid nucleation score
Test result: 1.8

Substance: LKMSLPYNMMVIILKRGGAY
Metric: amyloid nucleation score
Test result: inactive

Substance: RLSGVIGT
Metric: amyloid nucleation score
Test result: inactive

Substance: PVLEYKVL
Metric: amyloid nucleation score
Test result: inactive

Substance: TSTNNSRKYSSQRRWMHPLG
Metric: amyloid nucleation score
Test result: inactive

Substance: TFFSYSRTALGATYYSLIIC
Metric: amyloid nucleation score
Test result: inactive

Substance: TISLHFLGTADKPYLSWVAN
Metric: amyloid nucleation score
Test result: inactive

Substance: NFGQTGRCYKRLRFC
Metric: amyloid nucleation score
Test result: inactive

Substance: RMSLNFNSQPRSLVMGNKYS
Metric: amyloid nucleation score
Test result: inactive

Substance: KLGKESRSFLMTTRNVDRRF
Metric: amyloid nucleation score
Test result: 1.43

Substance: RSVVVIYKRCGLYLKS
Metric: amyloid nucleation score
Test result: inactive

Substance: YTSLCASVNGGLTIS
Metric: amyloid nucleation score
Test result: -0.464

Substance: TILWFSSNETFYAGIHRSCP
Metric: amyloid nucleation score
Test result: inactive

Substance: VKRGCCLVICWARFNVSEAH
Metric: amyloid nucleation score
Test result: inactive

Substance: VFKWWM
Metric: amyloid nucleation score
Test result: 1.2

Substance: FGLTTRRRPRNVW
Metric: amyloid nucleation score
Test result: inactive

Substance: LHPLYRFSANSSKDLFTSRL
Metric: amyloid nucleation score
Test result: inactive

Substance: LFCIWSSVLVRVHVFQKW
Metric: amyloid nucleation score
Test result: inactive

Substance: MVDSRLNSSLNYSLCLSDVK
Metric: amyloid nucleation score
Test result: inactive

Substance: GVNWFSIQFNIWVLSRDADL
Metric: amyloid nucleation score
Test result: 3.36

Substance: LLFLNFTICCYSFRKGMHGF
Metric: amyloid nucleation score
Test result: -0.344

Substance: RLSRSRKRYFFGFR
Metric: amyloid nucleation score
Test result: inactive

Substance: NTVLATYRTNAVFGKTTHYN
Metric: amyloid nucleation score
Test result: inactive

Substance: THLSVEFS
Metric: amyloid nucleation score
Test result: inactive

Substance: LILAMSRLALWSL
Metric: amyloid nucleation score
Test result: inactive

Substance: VDWKVAR
Metric: amyloid nucleation score
Test result: inactive

Substance: ILLLRGDGEACFNRVNDNSF
Metric: amyloid nucleation score
Test result: inactive

Substance: LVYSDCHRIISHWFFRYTWQ
Metric: amyloid nucleation score
Test result: inactive

Substance: KSFSHGLFDLRGKRTVEICL
Metric: amyloid nucleation score
Test result: inactive

Substance: QLCPHYFCKNKNATYGLTSR
Metric: amyloid nucleation score
Test result: inactive
